Form field: inhibition (one value per entry).
tested.system: Tyrosine-protein phosphatase non-receptor type 1 (Homo sapiens) (UniProt P18031)
Sequence (whole entry): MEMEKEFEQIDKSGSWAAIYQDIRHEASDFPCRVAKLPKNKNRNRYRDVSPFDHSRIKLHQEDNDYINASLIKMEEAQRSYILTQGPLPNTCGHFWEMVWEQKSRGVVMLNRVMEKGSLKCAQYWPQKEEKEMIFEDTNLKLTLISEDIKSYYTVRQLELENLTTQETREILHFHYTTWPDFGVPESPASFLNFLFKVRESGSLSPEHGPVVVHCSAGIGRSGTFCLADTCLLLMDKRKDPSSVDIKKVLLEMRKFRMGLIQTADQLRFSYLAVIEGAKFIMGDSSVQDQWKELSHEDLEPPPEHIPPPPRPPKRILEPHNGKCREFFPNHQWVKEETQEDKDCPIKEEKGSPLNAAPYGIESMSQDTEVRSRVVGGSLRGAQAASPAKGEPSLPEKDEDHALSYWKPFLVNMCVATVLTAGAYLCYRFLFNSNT
run.description: Inhibition of PTP1B (unknown origin) at 20 ug/ml using pNPP substrate measured after 3 mins by colorimetric assay

[
  {
    "compound": "C/C=C(/C)C(=O)O[C@H]1[C@@H](O)c2c(ccc3ccc(=O)oc23)OC1(C)C",
    "readout.qualifier": "<",
    "inhibition (%)": 50
  },
  {
    "compound": "CC(C)C(=O)O[C@H]1Cc2c(ccc3ccc(=O)oc23)OC1(C)C",
    "readout.qualifier": "=",
    "inhibition (%)": 93.7
  },
  {
    "compound": "C=C(C)C(=O)Cc1c(OC)ccc(C(=O)/C=C/c2ccc(O)cc2)c1O",
    "readout.qualifier": "=",
    "inhibition (%)": 85.2
  },
  {
    "compound": "COc1c2occc2cc2ccc(=O)oc12",
    "readout.qualifier": "<",
    "inhibition (%)": 50
  },
  {
    "compound": "CCOC1c2c(OC)ccc(C(=O)/C=C/c3ccc(O)cc3)c2OC1C(C)(C)O (configuration not stated)",
    "readout.qualifier": "=",
    "inhibition (%)": 91.9
  },
  {
    "compound": "C=C(C)C(O)Cc1c(OC)ccc(C(=O)/C=C/c2ccc(O)cc2)c1O (configuration not stated)",
    "readout.qualifier": "=",
    "inhibition (%)": 96.8
  },
  {
    "compound": "CC(C)=CCC/C(C)=C/Cc1c(O)ccc(C(=O)/C=C/c2ccc(O)cc2)c1O",
    "readout.qualifier": "=",
    "inhibition (%)": 79.8
  },
  {
    "compound": "C/C=C(/C)C(=O)O[C@H]1c2c(ccc3ccc(=O)oc23)OC(C)(C)[C@H]1O",
    "readout.qualifier": "<",
    "inhibition (%)": 50
  },
  {
    "compound": "COc1ccc(C(=O)/C=C/c2ccc(O)cc2)c(O)c1C/C=C(\\C)CCC=C(C)C",
    "readout.qualifier": "=",
    "inhibition (%)": 96.8
  },
  {
    "compound": "O=c1c(O[C@@H]2O[C@H](CO)[C@H](O)[C@H](O)[C@H]2O)c(-c2ccc(O)c(O)c2)oc2cc(O)cc(O)c12",
    "readout.qualifier": "<",
    "inhibition (%)": 50
  },
  {
    "compound": "CC1(C)Oc2ccc3ccc(=O)oc3c2[C@@H](O)[C@H]1O (relative stereo)",
    "readout.qualifier": "=",
    "inhibition (%)": 92.3
  },
  {
    "compound": "C[C@@H]1O[C@@H](Oc2c(-c3ccc(O)c(O)c3)oc3cc(O)cc(O)c3c2=O)[C@H](O)[C@H](O)[C@H]1O",
    "readout.qualifier": "=",
    "inhibition (%)": 64.4
  },
  {
    "compound": "COc1ccc(C(=O)/C=C/c2ccc(O)cc2)c2c1C(O)C(C(C)(C)O)O2 (configuration not stated)",
    "readout.qualifier": "<",
    "inhibition (%)": 50
  },
  {
    "compound": "O=c1cc(-c2ccc(O)c(O)c2)oc2cc(O[C@@H]3O[C@H](CO)[C@@H](O)[C@H](O)[C@H]3O)cc(O)c12",
    "readout.qualifier": "<",
    "inhibition (%)": 50
  },
  {
    "compound": "COc1ccc(C(=O)/C=C/c2ccc(O)cc2)c2c1[C@H](OC)[C@H](O)C(C)(C)O2",
    "readout.qualifier": "<",
    "inhibition (%)": 50
  },
  {
    "compound": "COc1ccc(C(=O)/C=C/c2ccc(O)cc2)c2c1[C@H](O)[C@H](O)C(C)(C)O2",
    "readout.qualifier": "<",
    "inhibition (%)": 50
  },
  {
    "compound": "C=C(C)C(Cc1c(OC)ccc(C(=O)/C=C/c2ccc(O)cc2)c1O)OO (configuration not stated)",
    "readout.qualifier": "=",
    "inhibition (%)": 99.4
  },
  {
    "compound": "COc1ccc(C(=O)/C=C/c2ccc(O)cc2)c(O)c1CC=C(C)C",
    "readout.qualifier": "=",
    "inhibition (%)": 86
  },
  {
    "compound": "COc1c2ccoc2cc2oc(=O)ccc12",
    "readout.qualifier": "=",
    "inhibition (%)": 98.4
  },
  {
    "compound": "C/C=C(/C)C(=O)O[C@@H]1Cc2c(ccc3ccc(=O)oc23)OC1(C)C",
    "readout.qualifier": "=",
    "inhibition (%)": 93.5
  },
  {
    "compound": "O=c1c(O[C@@H]2OC[C@H](O)[C@H](O)[C@H]2O)c(-c2ccc(O)c(O)c2)oc2cc(O)cc(O)c12",
    "readout.qualifier": "<",
    "inhibition (%)": 50
  },
  {
    "compound": "C=C[C@@H](O)C#CC#C[C@@H](O)/C=C\\CCCCCCC",
    "readout.qualifier": "=",
    "inhibition (%)": 97.8
  }
]
